Target: T1, human tissue factor pathway inhibitor (TFPI) (human, UniProt P10646 29-304, limits assumed)
T1 construct: bought; also called hTFPI; human TFPI
T1 sequence (looked up): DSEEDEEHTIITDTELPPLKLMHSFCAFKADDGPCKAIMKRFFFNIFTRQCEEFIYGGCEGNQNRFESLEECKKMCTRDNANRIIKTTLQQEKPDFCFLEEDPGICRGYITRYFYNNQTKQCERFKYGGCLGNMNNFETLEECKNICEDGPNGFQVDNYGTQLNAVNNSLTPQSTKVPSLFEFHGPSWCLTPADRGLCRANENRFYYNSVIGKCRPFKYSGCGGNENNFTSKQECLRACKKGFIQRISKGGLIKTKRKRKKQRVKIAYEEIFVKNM
Test: competitive ELISA
Listed here are binders together with their documented variant/wild-type.
The response must be a number in ratio with no trailing unit.

// solved cases for variant/wild-type follow
2A8 HC_I51D (Fab, V domains shown, also called 2A8-12) VH: QVQLVESGGGLVQPGGSLRLSCAASGFTFRSYGMSWVRQAPGKGLEWVSSDRGSSSSTYYADSVKGRFTISRDNSKNTLYLQMNSLRAEDTAVYYCARKYRYWFDYWGQGTLVTVSS VL: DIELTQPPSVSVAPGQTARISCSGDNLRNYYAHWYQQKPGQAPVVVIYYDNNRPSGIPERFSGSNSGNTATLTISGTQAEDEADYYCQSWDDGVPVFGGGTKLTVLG	3.9
2A8 LC_Y48F (Fab, V domains shown, also called 2A8-14) VH: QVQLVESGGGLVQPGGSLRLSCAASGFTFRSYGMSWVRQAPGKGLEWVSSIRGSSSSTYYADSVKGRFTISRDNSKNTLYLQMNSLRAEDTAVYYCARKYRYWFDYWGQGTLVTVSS VL: DIELTQPPSVSVAPGQTARISCSGDNLRNYYAHWYQQKPGQAPVVVIFYDNNRPSGIPERFSGSNSGNTATLTISGTQAEDEADYYCQSWDDGVPVFGGGTKLTVLG	4.6
2A8 LC_P54L (Fab, V domains shown) VH: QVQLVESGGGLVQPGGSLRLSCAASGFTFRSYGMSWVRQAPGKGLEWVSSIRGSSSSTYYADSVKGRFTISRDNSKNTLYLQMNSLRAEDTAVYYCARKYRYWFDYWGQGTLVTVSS VL: DIELTQPPSVSVAPGQTARISCSGDNLRNYYAHWYQQKPGQAPVVVIYYDNNRLSGIPERFSGSNSGNTATLTISGTQAEDEADYYCQSWDDGVPVFGGGTKLTVLG	5.3
2A8 LC_D91R (Fab, V domains shown) VH: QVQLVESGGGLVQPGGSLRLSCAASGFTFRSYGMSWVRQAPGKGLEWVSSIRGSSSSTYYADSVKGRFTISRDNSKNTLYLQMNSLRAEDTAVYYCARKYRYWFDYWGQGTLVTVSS VL: DIELTQPPSVSVAPGQTARISCSGDNLRNYYAHWYQQKPGQAPVVVIYYDNNRPSGIPERFSGSNSGNTATLTISGTQAEDEADYYCQSWRDGVPVFGGGTKLTVLG	3.1

Kindly review the next binder as well.
Query :: Quickly give me recorded variant/wild-type for 2A8 HC_S35D (Fab, V domains shown, also called 2A8-4) VH: QVQLVESGGGLVQPGGSLRLSCAASGFTFRSYGMDWVRQAPGKGLEWVSSIRGSSSSTYYADSVKGRFTISRDNSKNTLYLQMNSLRAEDTAVYYCARKYRYWFDYWGQGTLVTVSS VL: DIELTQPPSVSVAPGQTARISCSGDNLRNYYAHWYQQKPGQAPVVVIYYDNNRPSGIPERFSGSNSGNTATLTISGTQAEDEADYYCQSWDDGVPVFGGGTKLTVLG
Result :: 4.3
